Assay: Confirmatory qHTS for Identification of Small Molecule Inhibitors of Huntingtin Promoter Activity; also: nearly all actives have a fitted effect of over 65% in size
Details: HEK293 HTT promoter firefly luciferase reporter, 24 h; series mostly up to 57.5 µM
Results filed as inconclusive are left out. Activity calls are given as the source filed them. Calls follow the shape of the dose curve; as a rule, active = well fitted inhibition curve with a large enough effect; inconclusive = small, poorly fitted or top-dose-only effect; inactive = no such curve, though single readings can be large or run the other way.
Pick from 1 for active, 0 for inactive when you respond.

Can you look up the reported call for CC(C)c1nc2ccc(C(=O)NCCCN3CCN(c4cccc(Cl)c4)CC3)cc2o1 for me? 0

Can you look up the reported call for Cc1ccc(CN(C(=O)c2ccc(OCC(C)C)cc2)c2ccccn2)o1 for me? 0

Can you look up the reported call for Cc1cc(C)c(NS(=O)(=O)c2ccc(-c3cnc(C4CC4)o3)cc2)c(C)c1 for me? 1

Can you look up the reported call for COc1ccc([C@@H]2CNC(=O)C2)cc1OC1CCCC1 for me? 0

Can you look up the reported call for O=C(CSc1nccn1Cc1ccc(F)cc1)Nc1nc2ccccc2s1 for me? 0

Can you look up the reported call for CN(C)Cc1c(C(=O)NCCOc2ccc(C(=O)NO)cc2)oc2ccccc12 for me? 0

Can you look up the reported call for COc1ccc(C2C=C(c3ccc(Br)cc3)Nc3nnnn32)c(OC)c1 (stereo unspecified) for me? 0

Can you look up the reported call for Cc1cc(C)cc(NC(=O)Nc2cccs2)c1 for me? 0

Can you look up the reported call for Cn1cnc(=N)c2[nH]cnc21 for me? 0

Can you look up the reported call for CCOc1ccc(-n2c(/C=C/c3cccc(F)c3)nc3cc(OC)c(OC)cc3c2=O)cc1 for me? 0

Can you look up the reported call for CCOc1ccccc1NC(=O)C(=O)c1cc(C)n(-c2ccc(F)cc2)c1C for me? 0

====

Assay: Confirmatory qHTS for Identification of Small Molecule Inhibitors of Huntingtin Promoter Activity; also: nearly all actives have a fitted effect of over 65% in size
Conditions: HEK293 HTT promoter firefly luciferase reporter, 24 h; series mostly up to 57.5 µM
Records with an inconclusive call do not appear. Active and inactive are the calls of the source. The call rests on the fitted dose curve; in most records, active means well fitted inhibition curve with a large enough effect; inconclusive means small, poorly fitted or top-dose-only effect; inactive means no such curve, though single readings can be large or run the other way.
Pick from T = active, F = inactive when you respond.

Can you look up the reported call for Cc1ccc(C2=CC(c3ccc(Cl)cc3)n3nc(-c4ccc(C)cc4)nc3N2)cc1 (configuration not stated) for me? F

Can you look up the reported call for O=C(CN1c2ccc(Br)cc2-c2ccccc2S1(=O)=O)N1CCCCC1 for me? F

Can you look up the reported call for O=C(c1ccc2c(c1)N(Cc1ccccc1)C(=O)c1ccccc1S2(=O)=O)N1CCCCCC1 for me? F

Can you look up the reported call for COc1ccc(-c2nnc(C3CCN(C(=O)c4ccccc4F)CC3)o2)cc1 for me? F

Can you look up the reported call for O=C(NCc1ccccc1)c1cc2ccc3cccnc3c2[nH]1 for me? F

Can you look up the reported call for N#CC[C@H](C1CCCC1)n1cc(-c2ncnc3[nH]ccc23)cn1 for me? F

Can you look up the reported call for COc1cccc(-c2cn3c(n2)sc2cc(C(=O)NCc4cccs4)ccc23)c1 for me? F

Can you look up the reported call for COc1ccccc1C1Nc2c(sc3nc(C)cc(C)c23)C(=O)N1c1ccccc1 (configuration not stated) for me? F

Can you look up the reported call for CCOC(=O)c1ccc(N2C(=O)c3[nH]nc(-c4ccccc4)c3C2c2cccs2)cc1 (configuration not stated) for me? T

Can you look up the reported call for Cc1ccccc1Cn1c(=O)n(Cc2ccco2)c(=O)c2oc3ccccc3c21 for me? F

Can you look up the reported call for COc1ccc(NC(=O)Cn2c(SCc3ccc(F)cc3)nc3cccnc32)cc1OC for me? F

Can you look up the reported call for Cc1cc(C)c(Cn2c3ccccc3c3cnn(CC(=O)N4CCCCC4)c(=O)c32)c(C)c1 for me? F

Can you look up the reported call for COc1ccc2nc(N3CCN(C(=O)CS(=O)(=O)c4ccc(C)cc4)CC3)sc2c1 for me? F

Can you look up the reported call for CCc1ccc2c(c1)-c1ccccc1S(=O)(=O)N2CC(=O)N1CCC(C)CC1 for me? F

Can you look up the reported call for COc1ccc(-c2nc(CSCC(=O)N3CCN(c4cc(Cl)ccc4C)CC3)c(C)o2)cc1 for me? T

Can you look up the reported call for CCOc1ccc(C2=C(C(=O)CC)Sc3nncn3N2C(=O)CC)cc1 for me? F

Can you look up the reported call for O=C(NCc1cccnc1)C(=O)NCC(c1cccnc1)N1CCN(c2ccccc2F)CC1 (configuration not stated) for me? F

Can you look up the reported call for CCS(=O)(=O)c1oc(-c2ccc(F)cc2)nc1S(=O)(=O)c1ccc(Br)cc1 for me? F

Can you look up the reported call for Cc1[nH]c2ccccc2c1CCNCc1ccc(C=CC(=O)NO)cc1 for me? F

Can you look up the reported call for CCc1ccc(-n2c(SCC(=O)NC(C)CC)nc3n[nH]c(C)c3c2=N)cc1 (configuration not stated) for me? F

Can you look up the reported call for COc1ccc(-n2c(/C=C/c3cccc4ccccc34)nc3ccccc3c2=O)cc1Cl for me? F

Can you look up the reported call for COc1ccc(S(=O)(=O)c2cc3cc(C(C)(C)C)cc(O)c3oc2=O)cc1 for me? F
